- TESTED TARGET: T1, Recombinant human CD4 (R&D Systems, Cat. 10327-CD) (human, UniProt P01730 26-390, limits assumed)
- T1 construct: Bought reagent; also called huCD4
- TEST PROTOCOL: BLI Octet, non-clonal supernatant on AMC sensor, 100 nM human CD4, 1:1 local fit;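 further: Single-concentration kinetics per supernatant, with the 1:1 model fitted across both the association and dissociation phases of the sensorgram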
koff for assorted binders
ASSAY ENDPOINT: koff (s⁻¹)

{"BINDER": "75110_13C13A (antibody, V domains shown, Tested as non-clonal AlivaMab Mouse Kappa hybridoma supernatant, captured by anti-mouse IgG Fc sensor) VH: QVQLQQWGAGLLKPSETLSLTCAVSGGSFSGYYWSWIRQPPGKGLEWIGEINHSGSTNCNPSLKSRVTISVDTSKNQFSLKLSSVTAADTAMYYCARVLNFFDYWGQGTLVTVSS VL: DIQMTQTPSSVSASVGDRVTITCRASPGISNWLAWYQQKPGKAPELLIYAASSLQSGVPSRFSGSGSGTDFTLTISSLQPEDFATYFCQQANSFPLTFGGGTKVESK", "ASSAY ENDPOINT": "koff", "NUMERIC READOUT": 0.00051}
{"BINDER": "75110_12K21A (antibody, V domains shown, Tested as non-clonal AlivaMab Mouse Kappa hybridoma supernatant, captured by anti-mouse IgG Fc sensor) VH: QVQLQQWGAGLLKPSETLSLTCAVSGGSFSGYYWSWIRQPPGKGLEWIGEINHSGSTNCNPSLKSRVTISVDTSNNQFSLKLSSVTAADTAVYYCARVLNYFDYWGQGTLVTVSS VL: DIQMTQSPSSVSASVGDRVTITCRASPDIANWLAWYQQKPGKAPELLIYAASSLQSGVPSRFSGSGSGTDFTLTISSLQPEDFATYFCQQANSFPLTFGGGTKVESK", "ASSAY ENDPOINT": "koff", "NUMERIC READOUT": 0.0006}
{"BINDER": "75110_04K10A (antibody, V domains shown, Tested as non-clonal AlivaMab Mouse Kappa hybridoma supernatant, captured by anti-mouse IgG Fc sensor) VH: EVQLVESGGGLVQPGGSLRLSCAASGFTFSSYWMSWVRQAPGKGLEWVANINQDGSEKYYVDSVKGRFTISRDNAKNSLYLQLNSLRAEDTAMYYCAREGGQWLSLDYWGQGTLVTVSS VL: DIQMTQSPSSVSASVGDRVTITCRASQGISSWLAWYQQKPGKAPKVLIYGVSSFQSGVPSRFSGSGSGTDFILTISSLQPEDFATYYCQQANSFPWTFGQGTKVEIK", "ASSAY ENDPOINT": "koff", "NUMERIC READOUT": 0.0018}
